Experiment: NCI Yeast Anticancer Drug Screen. Data for the sgs1 mgt1 strain (AID 161);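 note: 0% = growth of cultures given vehicle only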
Conditions: S. cerevisiae sgs1 mgt1 strain, at 50.0 µM, hits give high values
Method: Growth inhibition of yeast strains with defined genetic alterations is measured as a screen for potential anti-cancer activity. Selected strains with alterations in DNA damage repair or cell cycle control were exposed to compounds and growth inhibition was measured relative to vehicle treated controls. The strain used in this assay is sgs1 mgt1
This is part of a sample that, as a whole, favours compounds with a hit. Of some 79,000 tested, about 15% had one in any assay.
Below is a list of entries, each paired with its recorded growth inhibition value.

# given_smiles, unit_string, growth inhibition
rows = [
    ("Cc1ccccc1N=C(c1ccccc1)C1C(=O)c2ccccc2C1=O", "%", 42.2),
    ("CCOc1ccc(/C=C/C(=O)c2ccccc2)cc1", "%", 24.6),
    ("O=c1[nH]nc(SC2CCCCC2)c(=O)[nH]1", "%", -11.9),
    ("N#CC(=Nc1cccc(F)c1)C1=C(O)c2ccccc2C1=O", "%", 22.4),
    ("O=[N+]([O-])c1ccc(O)c(S(=O)(=O)O)c1", "%", 7.65),
    ("CCOC(=O)c1cc2cccc(OC)c2oc1=O", "%", -5.65),
    ("Cc1cc(C(C)(C)C)cc(C)c1Br", "%", -9.25),
    ("CC(=O)CC(=O)N(C)C", "%", 6.9),
    ("COC(=O)c1cccc(Br)c1", "%", -4.75),
    ("Cc1cc(C)c(N)c(S(=O)(=O)O)c1", "%", -24.1),
    ("O=C(O)CSCSCC(=O)O", "%", -8.8),
    ("OCc1cccc2ccccc12", "%", 13.9),
    ("CCCCN(CCCC)CCCO", "%", -11.3),
    ("CCOC(=O)/C(C#N)=C/c1cccc(C)c1", "%", -25.2),
]
